A collection of sequences and their measured one-nucleolus phenotype percent effect
# Tested on: MCF10A
# method.notes: one-nucleolus phenotype percent effect (relative to siNT 0% and siNOL11 100%); higher = more cells with one nucleolus (ribosome biogenesis inhibition)
# test.settings: 20 nM; 72 h
Value expressed in %; do not type the unit.

Tell me the measured one-nucleolus phenotype percent effect of AUAGCAGCAUGAACCUGUCUCA [hsa-miR-4524a-5p] , please.
21.6

Entry UAUGUCCCAUCCCUCCAUCA [hsa-miR-6834-3p] has what one-nucleolus phenotype percent effect?
21.4

----------
Measured one-nucleolus phenotype percent effect values are reported for all entries that follow.
# Test system: MCF10A
# method.notes: one-nucleolus phenotype percent effect (relative to siNT 0% and siNOL11 100%); higher = more cells with one nucleolus (ribosome biogenesis inhibition)
# test.settings: 20 nM; 72 h
Write your answer as a measured quantity: the number, then the unit.

Consider the reported one-nucleolus phenotype percent effect for these sequences:
Which value of one-nucleolus phenotype percent effect has been reported for UGCCUCCUUGGUCUCCGGCAG [hsa-miR-6791-3p] in the records?
-3.74%

Entry UGCCAACCGUCAGAGCCCAGA [hsa-miR-5189-3p] has what one-nucleolus phenotype percent effect?
-1.7%

Value lookup for one-nucleolus phenotype percent effect; key = CAAAAGUGAUCGUGGUUUUUG [hsa-miR-548t-5p]
-10.3%

Entry under review: CACCCCCUGUUUCCUGGCCCAC [hsa-miR-4640-3p] . Reported one-nucleolus phenotype percent effect?
-11.3%

Consider now this further sequence.
May I ask what one-nucleolus phenotype percent effect has been recorded for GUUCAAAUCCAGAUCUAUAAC [hsa-miR-607] ?
-23.2%

----------
# Test system: MCF10A
# method.notes: one-nucleolus phenotype percent effect (relative to siNT 0% and siNOL11 100%); higher = more cells with one nucleolus (ribosome biogenesis inhibition)
# test.settings: 20 nM; 72 h
experimental.readout: one-nucleolus phenotype percent effect (%)
Numbers only; they are read as %.

# query: one-nucleolus phenotype percent effect of entry CUCUCACCACUGCCCUCCCACAG [hsa-miR-1229-3p]
-20.5

Others:
Data request, read-out one-nucleolus phenotype percent effect, for GAUUUCAGUGGAGUGAAGUUC [hsa-miR-205-3p]
-30.2

Name the reported one-nucleolus phenotype percent effect value associated with the sequence UACCUGGGAGACUGAGGUUGGA [hsa-miR-7851-3p]
-15.4

Need one-nucleolus phenotype percent effect of AGCGCGGGCUGAGCGCUGCCAGUC [hsa-miR-2277-5p] , thanks.
25.5

----------
# Tested on: MCF10A
# method.notes: percent viability (nuclei count relative to siNT); higher = more viable cells
# test.settings: 20 nM; 72 h
Just so you know, the groups by percent viability go like this: low bin: < 30%; mid bin: ≥ 30% and < 60%; high bin: ≥ 60%

For orientation, consider the following solved cases.
Class for GUGUGCGGAAAUGCUUCUGCUA [hsa-miR-147b] ?
high bin

Each sequence maps to one class by percent viability. Which class for UGCCCUGCAUGGUGUCCCCACAG [hsa-miR-6799-3p] ?
mid bin

Where would AGAUAUUUUGAGUGUUUGGAAUUG [hsa-miR-3145-3p] land among the classes by reported percent viability?
mid bin

Could you place UGAGGUAGUAGUUUCUU [hsa-miR-4500] in its proper category? Many thanks.
high bin

Classify this sequence: GUUUGCACGGGUGGGCCUUGUCU [hsa-miR-557]
mid bin

Please let me know in which category the item UCACUCCUCUCCUCCCGUCUU [hsa-miR-483-3p] belongs.
mid bin

Categorize the following entry: CAGGGCAGGGAAGGUGGGAGAG [hsa-miR-6879-5p]
high bin

Sort into band: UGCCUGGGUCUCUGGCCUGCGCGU [hsa-miR-661]
low bin

Using the reported percent viability, which band applies to AGCCUGUGCUUGUCCCUGCAG [hsa-miR-6811-3p] ?
low bin

Class? Entry: AAUGCACCCGGGCAAGGAUUCU [hsa-miR-501-3p]
mid bin

Continuing:
Which bin, given its percent viability, does CUCUCCUCCCGGCUUC [hsa-miR-4279] occupy?
low bin

# bin label for CUGCAAAGGGAAGCCCUUUC [hsa-miR-518a-5p]
mid bin

In plain terms, what class is AUGGCCAGAGCUCACACAGAGG [hsa-miR-4435] ?
high bin

Band assignment needed for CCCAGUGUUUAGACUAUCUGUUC [hsa-miR-199b-5p] please.
high bin

Class for UUCCCUUUGUCAUCCUAUGCCU [hsa-miR-204-5p] ?
high bin

Which category does the recorded percent viability put AAAUGGGUGGUCUGAGGCAA [hsa-miR-4506] in?
mid bin

Hello team, could you let me know which band the following sequence falls into: UUCAGCCAGGCUAGUGCAGUCU [hsa-miR-3157-5p]
low bin

Which class holds AUAGCAGCAUGAACCUGUCUCA [hsa-miR-4524a-5p] ?
low bin

For the record CUCCUCCACAGCCCCUGCUCAU [hsa-miR-6792-3p] , report the class its percent viability corresponds to.
mid bin

----------
# Test system: MCF10A
# method.notes: 5+ nucleoli phenotype percent effect (relative to siNT 0% and siKIF11 100%); higher = more cells with five or more nucleoli
# test.settings: 20 nM; 72 h
// values below are reported 5+ nucleoli phenotype percent effect
Just the number in %, nothing appended.

Before answering, review these 6 worked examples.
What value of 5+ nucleoli phenotype percent effect has been reported for the following sequence? UUCCCUAUCUCACUCUCCUCAG [hsa-miR-6883-3p]
20.1

Report 5+ nucleoli phenotype percent effect for GGGGCCUGGCGGUGGGCGG [hsa-miR-2861] please.
87.4

Requested field: 5+ nucleoli phenotype percent effect. Item: ACAGCACUGCCUGGUCAGA [hsa-miR-383-3p]
-19

So what's the measured 5+ nucleoli phenotype percent effect for this one? GUUUAACCUUUUGCCUGUUGG [hsa-miR-552-5p]
32

What 5+ nucleoli phenotype percent effect value was documented for this sequence, AGCUGAGCUCCAUGGACGUGCAGU [hsa-miR-4663] ?
16.3

# input sequence: GGUUCCCUCUCCAAAUGUGUCU [hsa-miR-642b-5p] ; wanted: its 5+ nucleoli phenotype percent effect
21.2

---
May I ask what 5+ nucleoli phenotype percent effect has been recorded for AUCGCUGCGGUUGCGAGCGCUGU [hsa-miR-639] ?
61.4

Which 5+ nucleoli phenotype percent effect value is on record for UCAAAACUGAGGGGCAUUUUCU [hsa-miR-1323] ?
27.8

Item under review: GGUGGGGCAAUGGGAUCAGGU [hsa-miR-3151] . Reported 5+ nucleoli phenotype percent effect?
9.32

Param item = CCUCCCAUGCCAAGAACUCCC [hsa-miR-2116-3p] ; retrieve measured 5+ nucleoli phenotype percent effect.
58.4

Returns the measured 5+ nucleoli phenotype percent effect for the input sequence. Input: UCUGGCCUUGACUUGACUCUUU [hsa-miR-3922-3p]
6.7

Recorded 5+ nucleoli phenotype percent effect of AGGAAGCAAGAGAACCCUGUGG [hsa-miR-6828-5p] , please.
-41.5

Which 5+ nucleoli phenotype percent effect reading was recorded for the sequence UGGGUCUUUGCGGGCGAGAUGA [hsa-miR-193a-5p] ?
-18.7

Recorded 5+ nucleoli phenotype percent effect for CAUCAGAAUUCAUGGAGGCUAG [hsa-miR-2115-3p] , please?
-5.23

I have this sequence here, CAAGGAGACGGGAACAUGGAGC [hsa-miR-4428] , and I need its recorded 5+ nucleoli phenotype percent effect.
32.8

Which measured 5+ nucleoli phenotype percent effect value corresponds to UUCUCUCUGUCUUUCUCUCUCAG [hsa-miR-6873-3p] ?
46.6

----------
Below, each of the sequences is paired with its reported 5+ nucleoli phenotype percent effect value.
# Test system: MCF10A
# method.notes: 5+ nucleoli phenotype percent effect (relative to siNT 0% and siKIF11 100%); higher = more cells with five or more nucleoli
# test.settings: 20 nM; 72 h
Write the figure, then the unit, nothing else.

# annotated cases, reported 5+ nucleoli phenotype percent effect shown
Recorded 5+ nucleoli phenotype percent effect of UAUGUAGUAGUCAAAGGCAUUU [hsa-miR-7852-3p] , please.
-8.45%

5+ nucleoli phenotype percent effect lookup needed for CUGGGUUGGGCUGGGCUGGG [hsa-miR-4507] , thanks.
-11.1%

Which 5+ nucleoli phenotype percent effect is reported for this sequence? CUCUAGAGGGAAGCACUUUCUG [hsa-miR-526a]
-7.42%

Next:
Consider the sequence GGCUUGCAUGGGGGACUGG [hsa-miR-4327] and give its measured 5+ nucleoli phenotype percent effect.
7.45%

----------
# Test system: MCF10A
# method.notes: 5+ nucleoli phenotype percent effect (relative to siNT 0% and siKIF11 100%); higher = more cells with five or more nucleoli
# test.settings: 20 nM; 72 h
Examples of sequences with documented 5+ nucleoli phenotype percent effect follow.
Quick reminder: number only, in %, skip the unit.

Consider the worked cases shown below.
Please report the recorded 5+ nucleoli phenotype percent effect for GGGGGUCCCCGGUGCUCGGAUC [hsa-miR-615-5p] .
33.1

Which 5+ nucleoli phenotype percent effect reading was recorded for the sequence UUAAUAUCGGACAACCAUUGU [hsa-miR-889] ?
0.0778

What value of 5+ nucleoli phenotype percent effect has been recorded for this entry: GCACCCAGGCAAGGAUUCUG [hsa-miR-500b-3p]
-15.3

Form field: reported 5+ nucleoli phenotype percent effect of UCCUGUCCCUGUCUCCUACAG [hsa-miR-6748-3p]
17

// 5+ nucleoli phenotype percent effect lookup, key: UUGGAAUAGGGGAUAUCUCAGC [hsa-miR-6505-5p]
-46.6

More entries:
Query (sequence): CUAAUAGUAUCUACCACAAUAAA [hsa-miR-633] ; field requested: 5+ nucleoli phenotype percent effect
35.1

// returns reported 5+ nucleoli phenotype percent effect for input UAGGACUAGAUGUUGGAAUUA [hsa-miR-4759]
10.4

Report 5+ nucleoli phenotype percent effect for UGGGGGCUGGAUGGGGUAGAGU [hsa-miR-6846-5p] please.
-0.876

What does the data say about its 5+ nucleoli phenotype percent effect? Entry: UCAAAUGCUCAGACUCCUGUGGU [hsa-miR-105-5p]
-18

Report 5+ nucleoli phenotype percent effect for GUCCAGUUUUCCCAGGAAUCCCU [hsa-miR-145-5p] please.
-1.55

What measured 5+ nucleoli phenotype percent effect goes with GCCGGGGCUUUGGGUGAGGG [hsa-miR-6784-5p] ?
49

What measured 5+ nucleoli phenotype percent effect goes with UAGGGUAGACACUGACAACGUU [hsa-miR-6755-5p] ?
-14.8

# query: 5+ nucleoli phenotype percent effect of entry CAGCCAGCCCCUGCUCACCCCU [hsa-miR-6858-3p]
3.04
